- Test Target: T1, FZD9 cysteine-rich domain (CRD), MYC-tagged and GPI-anchored on CHO cells (human, UniProt O00144 35-161, GPI anchor)
- T1 construct: also called FZD9 CRD; CHO-myc-FZDGPI; not shown: MYC tag and GPI anchor signal
- T1 sequence: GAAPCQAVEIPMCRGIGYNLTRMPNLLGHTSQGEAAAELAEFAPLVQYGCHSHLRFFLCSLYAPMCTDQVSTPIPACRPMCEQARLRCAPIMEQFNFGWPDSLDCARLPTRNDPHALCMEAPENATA
- Assay Summary: immunofluorescence, CHO-CRD cells
Test Readout: binding result

Fab-2903 (Fab, V domains shown, Fab; also called Fv-2903) VH: EVQLVESGGGLVQPGGSLRLSCAASGFNLSYYYIHWVRQAPGKGLEWVASIYPYSSYTSYADSVKGRFTISADTSKNTAYLQMNSLRAEDTAVYYCARGAIDYWGQGTLVTVSS V domain: DIQMTQSPSSLSASVGDRVTITCRASQSVSSAVAWYQQKPGKAPKLLIYSASSLYSGVPSRFSGSRSGTDFTLTISSLQPEDFATYYCQQWGGGSSLFTFG = no binding
Fab-2915 (Fab, V domains shown, Fab; also called Fv-2915) VH: EVQLVESGGGLVQPGGSLRLSCAASGFNIYYYSMHWVRQAPGKGLEWVASIYSSYGYTSYADSVKGRFTISADTSKNTAYLQMNSLRAEDTAVYYCARGYHYYPYYSGLDYWGQGTLVTVSS VL: DIQMTQSPSSLSASVGDRVTITCRASQSVSSAVAWYQQKPGKAPKLLIYSASSLYSGVPSRFSGSRSGTDFTLTISSLQPEDFATYYCQQAYYHSLITFGQGTKVEIK = no binding

Each recorded value in this set is attributed to patent US20210253718A1.
